Tested on: Vero E6 infected with SARS-CoV-2
experiment: inhibition of SARS-CoV-2 cytopathic effect; higher = more antiviral protection, active = above 15
assay context: 8.33 nM; 48 h
reported metric: inhibition of SARS-CoV-2 cytopathic effect (%)
Record the value in %, omitting the unit from your answer.

Missing value: inhibition of SARS-CoV-2 cytopathic effect, Vero E6 infected with SARS-CoV-2, entry CCN1CCCC1CNC(=O)c1cc(S(N)(=O)=O)ccc1OC (stereo not given) [sulpiride] . Fill in?
-1.14

Tell me reported inhibition of SARS-CoV-2 cytopathic effect for CC#C[C@]1(O)CC[C@H]2[C@@H]3CCC4=CC(=O)CCC4=C3[C@@H](c3ccc(N(C)C)cc3)C[C@@]21C [mifepristone] , tested with Vero E6 infected with SARS-CoV-2.
0.62

// fetch Vero E6 infected with SARS-CoV-2 inhibition of SARS-CoV-2 cytopathic effect for Cc1oc(-c2ccccc2)nc1CCC(=O)c1ccc(CC2SC(=O)NC2=O)cc1 (stereo not given) [darglitazone]
3.08

Record O=C(O)c1ccccc1Nc1cc(Cl)ccc1C(=O)O [lobenzarit] : what is its inhibition of SARS-CoV-2 cytopathic effect with Vero E6 infected with SARS-CoV-2?
-0.08

Fill in the recorded inhibition of SARS-CoV-2 cytopathic effect for this compound, with Vero E6 infected with SARS-CoV-2 as test system: CN(C)CCn1nnnc1SCC1=C(C(=O)O)N2C(=O)[C@@H](NC(=O)Cc3csc(N)n3)[C@H]2SC1 [cefotiam]
-0.06
